Test system: Clone20 osteoblast Shn3 3'UTR firefly luciferase, 24 h
Assay: Shn3 3'UTR reporter inhibitors, dose response, cell-based, Clone20 osteoblasts, luminescence, dry powder, set 2 (AID 743417)
Records with an inconclusive call do not appear.
measure.name: AC50

INSERT INTO measurements (compound, reported_value) VALUES
  ('Fc1ccc2[nH]c3c(N4CCSCC4)ncnc3c2c1', '2760 nM'),
  ('CC(C)CC(=O)NC(=S)Nc1ccc(N2CCN(C(=O)c3cccs3)CC2)cc1', '2540 nM'),
  ('O=C(NCc1cccnc1)/C(=C\c1ccc(-c2ccc(Br)cc2)o1)S(=O)(=O)c1ccccc1', '6330 nM'),
  ('COC(=O)c1ccc(N2CCN(S(=O)(=O)c3ccc(C)cc3)CC2)c([N+](=O)[O-])c1', '3880 nM'),
  ('O=C(c1nnsc1S(=O)c1ccc(Cl)cc1)N1CCOCC1 (stereo not given)', '930 nM');

* * *

Test system: Clone20 osteoblast Shn3 3'UTR firefly luciferase, 24 h
Assay: Shn3 3'UTR reporter inhibitors, dose response, cell-based, Clone20 osteoblasts, luminescence, dry powder, set 2 (AID 743417)
Results filed as inconclusive are left out. *1 amine or outer side, *2 acyl side, *3 side chain or, on linkers, in order; H or OH if unused. Where a SMILES comes first, the peptide text is derived from it. Bridges are numbered along the chain shown (N, C = ends). [ ]: non-standard residue; d: D form. ξ: configuration not given here. X1 = CC[C@H](CCC[C@@H](O)[C@@H](C)C(=O)O[C@H](C)[C@@H](C)C/C=C(C)/C(=C\C(=O)[*:1])OC)O[*:2]; NMeξIle = CC[C@H](C)C(NC)C(=O)O; NMeV = CN[C@H](C(=O)O)C(C)C; NMeS = CN[C@@H](CO)C(=O)O
measure.name: AC50

INSERT INTO assay_data (molecule, target_system, reported_value) VALUES
  ('CCOc1cc(/C=C2\CN(CC)C/C(=C\c3ccc(O)c(OCC)c3)C2=O)ccc1O', 'Clone20 osteoblast Shn3 3''UTR firefly luciferase, 24 h', '2.12 µM'),
  ('O=S(=O)(NCc1ccncc1)c1ccc(F)c(F)c1', 'Clone20 osteoblast Shn3 3''UTR firefly luciferase, 24 h', '2.09 µM'),
  ('C[C@H](NC(=O)c1nc[nH]c1C(=O)NCc1ccc(CNC(=O)OC(C)(C)C)cc1)c1ccccc1', 'Clone20 osteoblast Shn3 3''UTR firefly luciferase, 24 h', '11.7 µM'),
  ('O=C(O)C1(Nc2ccccc2Cl)CCCC1', 'Clone20 osteoblast Shn3 3''UTR firefly luciferase, 24 h', '29.5 µM'),
  ('CCCCNc1c(-c2cccc(-c3ccc(OC)cc3)c2)nc2cc(C)ccn12', 'Clone20 osteoblast Shn3 3''UTR firefly luciferase, 24 h', '12 µM'),
  ('Cc1cc(C)nc(SCC(=O)Nc2ccnc3ccccc23)n1', 'Clone20 osteoblast Shn3 3''UTR firefly luciferase, 24 h', '0.462 µM'),
  ('COC(=O)C1=C(c2ccc(-c3ccccc3)c(F)c2)C[C@@H]2CC[C@H]1N2C(=O)N1CCCC1', 'Clone20 osteoblast Shn3 3''UTR firefly luciferase, 24 h', '6.06 µM'),
  ('C=CCN(c1ccccc1)S(=O)(=O)c1cccc(C(=O)Nc2nc3ccccc3[nH]2)c1', 'Clone20 osteoblast Shn3 3''UTR firefly luciferase, 24 h', '10.1 µM'),
  ('O=C(c1ccc(Br)cc1)C(CN1CCOCC1)c1ccccc1 (centres undefined)', 'Clone20 osteoblast Shn3 3''UTR firefly luciferase, 24 h', '9.4 µM'),
  ('Cc1ccc(Cn2ccc(=O)c(OCc3c(Cl)cccc3Cl)c2C)cc1', 'Clone20 osteoblast Shn3 3''UTR firefly luciferase, 24 h', '6.11 µM'),
  ('Cc1ccn2c(Nc3ccccc3)c(-c3ccccn3)nc2c1', 'Clone20 osteoblast Shn3 3''UTR firefly luciferase, 24 h', '2.31 µM'),
  ('CC[C@@H]1CCC[C@@H](O)[C@@H](C)C(=O)O[C@H](C)[C@@H](C)C/C=C(C)/C(OC)=C\C(=O)N(C)C([C@@H](C)CC)C(=O)N(C)[C@@H](C(C)C)C(=O)N(C)[C@@H](COC)C(=O)N2CCC[C@H]2C(=O)N(C)[C@@H](C(C)C)C(=O)N2CCC[C@H]2C(=O)O1 (some centres undefined) ([NMeξIle][NMeV][NMeS](Me)P[NMeV]P; linker N-C via X1)', 'Clone20 osteoblast Shn3 3''UTR firefly luciferase, 24 h', '< 0.26 µM'),
  ('CC(CNC(=O)c1cc(COc2ccc3ncccc3c2)on1)c1ccccc1 (centres undefined)', 'Clone20 osteoblast Shn3 3''UTR firefly luciferase, 24 h', '3.73 µM'),
  ('CCCC(=O)N1CCN(c2ccc(NC(=O)c3cc4ccccc4o3)cc2Cl)CC1', 'Clone20 osteoblast Shn3 3''UTR firefly luciferase, 24 h', '4.1 µM'),
  ('Cc1ccc(S(=O)(=O)N2CCN(c3ncnc4sccc34)CC2)cc1C', 'Clone20 osteoblast Shn3 3''UTR firefly luciferase, 24 h', '3.53 µM'),
  ('CC(Sc1nc2ccccc2c(=O)n1C)C(=O)NC1CCCCC1C (centres undefined)', 'Clone20 osteoblast Shn3 3''UTR firefly luciferase, 24 h', '3.46 µM'),
  ('CCC(=O)c1cn(CC(=O)Nc2cccc(C)c2C)c2ccccc12', 'Clone20 osteoblast Shn3 3''UTR firefly luciferase, 24 h', '1.52 µM'),
  ('O=C(/C=C/Nc1ccccc1Br)c1ccccn1', 'Clone20 osteoblast Shn3 3''UTR firefly luciferase, 24 h', '1.8 µM'),
  ('COCCn1c(CN2CCN(c3cccc(Cl)c3)CC2)nc2c1c(=O)n(C)c(=O)n2C', 'Clone20 osteoblast Shn3 3''UTR firefly luciferase, 24 h', '10.7 µM');

The reported measurements were obtained from PubChem BioAssay AID743417.
